Measurement record for PI3Kalpha (Homo sapiens (Human)); quantity recorded: IC50.
Report the figure in nM without appending any unit label.

Worked examples, 5 compounds total:
compound | IC50 (nM)
CCc1ncnc(-c2ccc(C(=O)N3CCNCC3)c(Cl)c2)c1C#Cc1ccc(N)nc1 [Example D-152] | 164
CCc1ncnc(-c2ccc(C(=O)N3CCN(Cc4nc(C)c(C)o4)CC3)c(Cl)c2)c1C#Cc1ccc(N)nc1 | 127
CCc1ncnc(-c2ccc(C(=O)N3CCN(C4CCS(=O)(=O)C4)CC3)c(Cl)c2)c1C#Cc1ccc(N)nc1 (stereo not shown) | 121
CCc1ncnc(-c2ccc(C(=O)N3CCn4c(C)cnc4C3)c(Cl)c2)c1C#Cc1ccc(N)nc1 | 31.6
CCc1ncnc(-c2ccc(C(=O)N3CCN(C4CCS(=O)(=O)C4)CC3)c(F)c2)c1C#Cc1ccc(N)nc1C (stereo not shown) | 178

Give the reported IC50 for CCc1ncnc(-c2ccc(C(=O)N3CCN(C)CC3)c(F)c2)c1C#Cc1ccc(NC)nc1 (system: PI3Kalpha (Homo sapiens (Human))).
247

Next compound: CCc1ncnc(-c2ccc(C(=O)N3CCOCC3)c(F)c2)c1C#Cc1ccc(N)nc1C
116

---

Catalogue of pIC50 readings, one per entry.
Target: PI3Kalpha (Homo sapiens (Human))
Details: read-out: IC50 PI3K
Quick note: pIC50 values are minus log10 of concentrations in mol/L.

Worked examples, 3 compounds total:
compound | pIC50
CCc1ncnc(-c2ccccc2)c1C#Cc1ccc(N)nc1 | 7.00
CCc1ncnc(-c2ccc(C(=O)N3CCC(N4CCN(C5CCN(C)CC5)CC4)CC3)c(F)c2)c1C#Cc1ccc(N)nc1 | 6.61
CCc1ncnc(-c2ccc(C(=O)NC3CC(C)(C)NC(C)(C)C3)c(F)c2)c1C#Cc1ccc(N)nc1 | 6.57

Given the compound CCc1ncnc(-c2ccc(C(=O)N3CCN(Cc4cc(C)no4)CC3)c(Cl)c2)c1C#Cc1ccc(N)nc1 , what is its reported pIC50?
6.96

Next compound: CCc1ncnc(-c2ccc(C(=O)N3CCC(CN(C)C)CC3)c(Cl)c2)c1C#Cc1ccc(N)nc1
6.35

Next compound: CCc1ncnc(-c2ccnc(C)c2)c1C#Cc1ccc(N)nc1
7.24

Next compound: CCc1ncnc(-c2ccc(C(=O)N3CC4(CN(C)C4)C3)c(F)c2)c1C#Cc1ccc(N)nc1
6.54

Next compound: CCc1ncnc(-c2ccc(C(=O)N3CCN(C(C)CO)CC3)c(F)c2)c1C#Cc1ccc(N)nc1 (centres unmarked)
6.67

---

Target: PI3Kalpha (Homo sapiens (Human), UniProt P42336)
Sequence (P42336 whole entry, looked up): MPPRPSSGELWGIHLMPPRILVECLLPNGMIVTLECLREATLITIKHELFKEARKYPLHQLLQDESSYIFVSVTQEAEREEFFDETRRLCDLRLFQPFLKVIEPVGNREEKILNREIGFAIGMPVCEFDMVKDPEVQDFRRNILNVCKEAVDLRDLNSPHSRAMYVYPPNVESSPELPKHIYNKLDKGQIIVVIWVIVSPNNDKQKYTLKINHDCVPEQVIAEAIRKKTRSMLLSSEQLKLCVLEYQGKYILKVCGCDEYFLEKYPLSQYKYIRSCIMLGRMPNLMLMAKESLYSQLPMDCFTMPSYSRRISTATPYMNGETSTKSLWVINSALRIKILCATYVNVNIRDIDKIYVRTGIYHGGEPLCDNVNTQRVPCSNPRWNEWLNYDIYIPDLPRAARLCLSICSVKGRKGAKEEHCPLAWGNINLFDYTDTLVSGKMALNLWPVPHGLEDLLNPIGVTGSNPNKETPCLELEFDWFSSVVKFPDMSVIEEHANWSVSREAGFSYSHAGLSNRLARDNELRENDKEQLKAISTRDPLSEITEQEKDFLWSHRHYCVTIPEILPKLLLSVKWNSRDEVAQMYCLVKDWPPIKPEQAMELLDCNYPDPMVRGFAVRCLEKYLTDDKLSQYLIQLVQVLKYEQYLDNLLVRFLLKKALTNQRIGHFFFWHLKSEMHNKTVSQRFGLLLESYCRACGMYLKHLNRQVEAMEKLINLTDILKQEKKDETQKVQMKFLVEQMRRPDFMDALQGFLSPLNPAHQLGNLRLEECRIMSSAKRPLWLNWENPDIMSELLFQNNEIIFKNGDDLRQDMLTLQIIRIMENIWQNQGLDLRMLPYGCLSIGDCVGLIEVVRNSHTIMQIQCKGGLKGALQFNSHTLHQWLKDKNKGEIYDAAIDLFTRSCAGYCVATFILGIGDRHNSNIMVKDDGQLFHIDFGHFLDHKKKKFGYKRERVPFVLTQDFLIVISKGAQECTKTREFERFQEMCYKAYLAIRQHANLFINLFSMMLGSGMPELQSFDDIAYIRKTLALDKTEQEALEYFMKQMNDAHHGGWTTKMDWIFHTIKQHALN
readout.name: IC50 (µM)
Report the figure in µM without appending any unit label.

Given the compound CCc1ncnc(-c2cc(F)c(C(=O)N3CCC4(CC3)CNC4)c(Cl)c2)c1C#Cc1ccc(N)nc1 , what is its reported IC50?
0.54

Next compound: COCCN1CCN(C(=O)c2ccc(-c3ncnc(C)c3C#Cc3ccc(N)nc3)cc2)CC1
0.118

Next compound: CCc1ncnc(-c2cc(F)c(C(=O)N3CCC4(CC3)COC4)c(F)c2)c1C#Cc1ccc(N)nc1
0.12

Next compound: CCc1ncnc(-c2cc(Cl)c(C(=O)N3CCN(C)CC3)c(Cl)c2)c1C#Cc1ccc(N)nc1
0.123

Next compound: CCc1ncnc(-c2ccc(C(=O)N3CCN(CCO)CC3)c(Cl)c2)c1C#Cc1ccc(N)nc1
0.084

---

Biological target: PI3Kalpha (Homo sapiens (Human), UniProt P42336)
readout.name: IC50 (nM)
Report the figure in nM without appending any unit label.

Worked examples, 3 compounds total:
compound | readout.name | value.reported
CCc1ncnc(-c2ccc(C(=O)N(C)CCCO)c(F)c2)c1C#Cc1ccc(N)nc1 | IC50 | 58
CCc1ncnc(-c2ccc(C(=O)NCC3(C)COC3)c(Cl)c2)c1C#Cc1ccc(N)nc1 [Example D-159] | IC50 | 66
CCc1ncnc(-c2cc(C)nc(C)c2)c1C#Cc1ccc(N)nc1 | IC50 | 29

Given the compound Cc1ncnc(-c2ccc(C(F)(F)F)nc2)c1C#Cc1ccc(N)nc1 , what is its reported IC50?
99

Next compound: CCc1ncnc(-c2ccc(C(=O)N3CCN(C)CC3)c(OC(F)(F)F)c2)c1C#Cc1ccc(N)nc1
224

Next compound: CCc1ncnc(-c2ccc(C(=O)N3CCC4(CC3)CC(NC(=O)OC(C)(C)C)C4)c(F)c2)c1C#Cc1ccc(N)nc1
360

Next compound: CCc1ncnc(-c2ccc(C(=O)NCC(O)CN(C)C)c(F)c2)c1C#Cc1ccc(N)nc1 (centres unmarked)
292

Next compound: CCc1ncnc(-c2cc(F)c(C(=O)N3CCN(C4CCOCC4)CC3)c(F)c2)c1C#Cc1ccc(N)nc1
124

---

Measurement record for PI3Kalpha (Homo sapiens (Human), UniProt P42336); quantity recorded: pIC50.
Quick note: pIC50 values are minus log10 of concentrations in mol/L.

compound | readout.name | value.reported
CCc1ncnc(-c2cc(Cl)c(C(=O)N3CCN(CC(F)F)CC3)c(Cl)c2)c1C#Cc1ccc(N)nc1 [Example E-202] | pIC50 | 7.07

Given the compound CCc1ncnc(-c2ccc(C(=O)N3CCN(C(C)=O)CC3)c(Cl)c2)c1C#Cc1ccc(N)nc1 [Example D-46] , what is its reported pIC50?
7.01

Next compound: CCc1ncnc(-c2cc(F)c(C(=O)NCC3CCNCC3)c(F)c2)c1C#Cc1ccc(N)nc1 [Example E-175]
6.79

---

Measurement record for PI3Kalpha (Homo sapiens (Human)); quantity recorded: IC50.
Numeric answer plus unit only.

compound | IC50
CCc1ncnc(-c2ccc(C(=O)NCC3(C)COC3)c(C)c2)c1C#Cc1ccc(N)nc1 | 44.9 nM
CCc1ncnc(-c2cc(F)c(C(=O)N3CCN(C)CC3)c(F)c2)c1C#Cc1ccc(NC)nc1 | 388 nM
CCc1ncnc(-c2ccc(C(=O)N3CCN(C4CCN(C)CC4)CC3)c(F)c2)c1C#Cc1ccc(N)nc1 | 198 nM

Turning to the following compound.
Given the compound CCc1ncnc(-c2ccc(C(=O)N(C)O)c(Cl)c2)c1C#Cc1ccc(N)nc1 [Example E-35] , what is its reported IC50?
67.4 nM

---

Biological target: PI3Kalpha (Homo sapiens (Human), UniProt P42336)
Catalogue of IC50 readings, one per entry.
Report the figure in nM without appending any unit label.

Worked examples, 8 compounds total:
compound | value.reported
CCc1ncnc(-c2cc(Cl)c(C(=O)N3CCN(CC(C)(C)O)CC3)c(Cl)c2)c1C#Cc1ccc(N)nc1 | 74.6
CCc1ncnc(-c2ccc(C(=O)NCC3CCN(C)CC3)c(F)c2)c1C#Cc1ccc(N)nc1 | 303
CCc1ncnc(-c2cc(F)c(C(=O)N3CCN(C(C)C)CC3)c(Cl)c2)c1C#Cc1ccc(N)nc1 | 263
Cc1ncnc(-c2ccc(F)c(C(=O)N(C)C)c2)c1C#Cc1ccc(N)nc1 | 254
CCc1ncnc(-c2ccc(C(=O)N3CCOCC3)c(Cl)c2)c1C#Cc1ccc(N)nc1 | 66.5
CCc1ncnc(-c2ccc(C(=O)N3CCN(C)CC3)c(Cl)c2)c1C#Cc1ccc(NC)nc1 | 142
CCc1ncnc(-c2ccc(C(=O)N3CCN(CCOC)CC3)c(OC)c2)c1C#Cc1ccc(N)nc1 | 134
CCc1ncnc(-c2ccc(C(=O)N3CCN(C4CCOCC4)CC3)c(F)c2)c1C#Cc1ccc(N)nc1 | 127

Given the compound CCc1ncnc(-c2cc(Cl)c(C(=O)N3CCN4CCC[C@H]4C3)c(Cl)c2)c1C#Cc1ccc(N)nc1 , what is its reported IC50?
129

Next compound: CCc1ncnc(-c2ccc(C(=O)N3CCC(C)(O)CC3)c(Cl)c2)c1C#Cc1ccc(N)nc1 [Example E-25]
76.8

---

Measurement record for PI3Kalpha (Homo sapiens (Human), UniProt P42336); quantity recorded: pIC50.
Quick note: pIC50 values are minus log10 of concentrations in mol/L.

molecule | measurement.target | readout.name | value.reported
CCc1ncnc(-c2cc(F)c(C(=O)N3CCC(CN)CC3)c(Cl)c2)c1C#Cc1ccc(N)nc1 | PI3Kalpha (Homo sapiens (Human), UniProt P42336) | pIC50 | 6.19

Given the molecule CCc1ncnc(-c2ccc(C(=O)N3CCC4(CCN(C)CC4)CC3)c(C)c2)c1C#Cc1ccc(N)nc1 , what is its reported pIC50?
6.44

Next molecule: CCc1ncnc(-c2ccc(C(=O)N3CCC[C@H]3CO)c(F)c2)c1C#Cc1ccc(N)nc1 [Example E-17]
6.87

Next molecule: CCc1ncnc(-c2cnc3ccccc3c2)c1C#Cc1ccc(N)nc1
7.62

---

Catalogue of pIC50 readings, one per entry.
Target: PI3Kalpha (Homo sapiens (Human))
Conditions: read-out: IC50 PI3K
Quick note: pIC50 values are minus log10 of concentrations in mol/L.

compound | measurement.target | pIC50
CCc1ncnc(-c2ccc(C(=O)NC3CCN(C)C3)c(F)c2)c1C#Cc1ccc(N)nc1 [Example D-199] | PI3Kalpha (Homo sapiens (Human)) | 6.46
CCc1ncnc(-c2ccc(C(=O)N3CCN(CCCS(C)(=O)=O)CC3)c(Cl)c2)c1C#Cc1ccc(N)nc1 [Example E-257] | PI3Kalpha (Homo sapiens (Human)) | 7.23

Given the compound CCc1ncnc(-c2ccc(C(=O)N3CCN(C4CC4)CC3)c(F)c2)c1C#Cc1ccc(N)nc1 [Example D-121] , what is its reported pIC50?
6.90

Next compound: CCc1ncnc(-c2ccc(C(=O)N(C)CCN3CCCC3=O)c(Cl)c2)c1C#Cc1ccc(N)nc1 [Example E-85]
7.25

Next compound: CCc1ncnc(-c2ccc(C(=O)N3CCC(N4CCN(C)CC4)CC3)c(Cl)c2)c1C#Cc1ccc(NC)nc1 [Example E-192]
6.48

Next compound: CCc1ncnc(-c2ccc(C(=O)NC3CC(N4CCCCC4)C3)c(F)c2)c1C#Cc1ccc(N)nc1 [Example D-207]
6.36

Next compound: CCc1ncnc(-c2ccc(C(=O)NCCN3CCOCC3)c(Cl)c2)c1C#Cc1ccc(N)nc1 [Example E-84]
6.95
